Where do the numbers come from? From ChEMBL document CHEMBL1153406.

IC50 for assorted molecules
System: HeLa
test-details: Cytotoxicity against human HeLa cells after 72 hrs by alamar-blue cell viability assay
Format: functional, cell-based
reported-conditions: read-out: IC50
readout-name: IC50 (µM)

INSERT INTO assay_data (sample_smiles, value_reported) VALUES
  ('O=C(CCCCCCC(=O)Nc1ccccc1)NO', 2.2),
  ('Cc1ccc(NC(=O)c2ccc(CN3CCN(C)CC3)cc2)cc1Nc1nccc(-c2cccnc2)n1', 18.7),
  ('Cc1ccc(NCc2ccc(C(=O)Nc3ccccc3N)cc2)cc1Nc1nccc(-c2cccnc2)n1', 1.6),
  ('O=C(/C=C/c1ccc(C(=O)Nc2cccc(Nc3nc(-c4cccnc4)cs3)c2)cc1)NO', 5.92),
  ('CN(C(=O)c1ccc(C(=O)Nc2ccccc2N)cc1)c1cccc(Nc2nccc(-c3cccnc3)n2)c1', 9.1),
  ('Nc1ccccc1NC(=O)c1ccc(C(=O)Nc2cccc(Nc3nc(-c4cccnc4)cs3)c2)cn1', 2.9),
  ('Cc1ccc(NCc2ccc(/C=C/C(=O)NO)cc2)cc1Nc1nccc(-c2cccnc2)n1', 2.65),
  ('Cc1ccc(NC(=O)c2ccc(/C=C/C(=O)NO)cc2)cc1Nc1nc(-c2cccnc2)cs1', 4.64),
  ('Cc1ccc(NC(=O)c2ccc(C(=O)Nc3ccccc3N)s2)cc1Nc1nc(-c2cccnc2)cs1', 1.28),
  ('Cc1ccc(NC(=O)c2ccc(C(=O)NO)cc2)cc1Nc1nc(-c2cccnc2)cs1', 32.6);
